System: RXRa DBDmut IVT, anti-RXR (DBD mutation: RXRa K156A/R161A, NR concentration 90 nM)
TEST NAME: PBM binding z-score (relative to random genomic background probes); higher = stronger binding; sequences stand for … in GC…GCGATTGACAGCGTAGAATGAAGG
Reported values of PBM binding z-score for individual entries

Take a look at these entries with their results.
CCTTACGGGTCACTGACAGGGTATAGCATTTGGA 1.26
ATATGTAGGTTAAGGGTCATTCAAGTTGGTTCGC 1.9
CCAGACAGGTGAAAGGTAAGTCAGTCTGGTACGC 0.066
GATACAGGGTCAGGTAGAGGCCAGAGTATGGAAA 0.77

# next sequence below
Ask | Would you mind telling me what PBM binding z-score value was observed for CAAACTAGGTCAAGAGATCAAAGTCCGCTTCCCG ?
Reply | 1.59

---

Tested on: PPARg:RXRa 270nM:90nM, anti-RXR (NR concentration 270 nM, RXRa partner concentration 90 nM)
TEST NAME: PBM binding z-score (relative to random genomic background probes); higher = stronger binding; sequences stand for … in GC…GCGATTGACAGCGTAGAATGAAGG
QUANTITY: PBM binding z-score
Enter a number only.

ATCTCTAGGTAAGACCCAGTTCAGTGAAGAACGC 0.208
CCTTACGGCTCACGAGGTTATAGCACGACGAGCG 0.128
CGTCCAAGGTCAAGGTCAGTCAAAGAGACTCGAA 5.98
CCGACTGGGGTAGAAAGGTTACCATACCATCCGG 3.63
CCTCGGAGGACAGATGGTCAGAGCTGTCCGCTTT -0.669

Ask | Would you mind telling me what PBM binding z-score value was observed for ATATGTAGGTTATCGGGTCACTCAGTTTGCGCAT ?
Reply | 6

Ask | Would you mind telling me what PBM binding z-score value was observed for TCTAGTTGGTCACGGACGTCACACACGACGGGTA ?
Reply | 1.59

Ask | Would you mind telling me what PBM binding z-score value was observed for TCTTGTAGATCAAAGGTTAAGAACGCCGAAGCCT ?
Reply | 7.86

Ask | Would you mind telling me what PBM binding z-score value was observed for AGTCTAAGTTCAGGACGAGGTAACGTAAAGCACG ?
Reply | 0.749

Ask | Would you mind telling me what PBM binding z-score value was observed for TCTAGTTGGTCACGGTGGTCACACACGACGGGTA ?
Reply | 2.15

Ask | Would you mind telling me what PBM binding z-score value was observed for CCTAGTTGGTCAGGGTCACACACGCTATAGGTAC ?
Reply | 3.51

Ask | Would you mind telling me what PBM binding z-score value was observed for CTTTACGGGTCACTGACAGGTTATAGCATTTGGA ?
Reply | 5.14

Ask | Would you mind telling me what PBM binding z-score value was observed for GATACAGCGTCAAGGCCAGAGTACGCGTATTGAT ?
Reply | -0.494

Ask | Would you mind telling me what PBM binding z-score value was observed for CCTTACGGGTCACGAGGTTATACCACGACGAGCG ?
Reply | 6.43

Ask | Would you mind telling me what PBM binding z-score value was observed for ATCCAAAGGTCGAAGGTGAGTATACCCACCCGAA ?
Reply | 5.37

Ask | Would you mind telling me what PBM binding z-score value was observed for TCTTGTAGATCAAGCAGGTTATGAAAGCCTGAGT ?
Reply | 1.27
